# Tested on: 439559-082-T-J2-PDC complex spheroid growth
# PROTOCOL_SUMMARY: Anticancer human tumor 439559-082-T-J2-PDC patient-derived colon adenocarcinoma cell line growth inhibition [Asc]
# CONDITION_PARAMETERS: curve of first compound; second compound 1 µM
VALUE_TYPE: IC50

Worked cases, answers included:
COMPOUND: C#Cc1c(F)ccc2cc(O)cc(-c3ncc4c(N5CC6CCC(C5)N6)nc(OCC56CCCN5CC(F)C6)nc4c3F)c12 (stereo unspecified) + CNC(C)C(=O)NC1CN(S(=O)(=O)c2cccc(S(=O)(=O)N3CCC4CCC(C(=O)NC(c5ccccc5)c5ccccc5)N4C(=O)C(NC(=O)C(C)NC)C3)c2)CCC2CCC(C(=O)NC(c3ccccc3)c3ccccc3)N2C1=O
IC50: 269 nM
--
COMPOUND: CNC(C)C(=O)NC1CN(S(=O)(=O)c2cccc(S(=O)(=O)N3CCC4CCC(C(=O)NC(c5ccccc5)c5ccccc5)N4C(=O)C(NC(=O)C(C)NC)C3)c2)CCC2CCC(C(=O)NC(c3ccccc3)c3ccccc3)N2C1=O (stereo unspecified) + Cc1c(S(C)(=O)=O)c(-c2cc(F)cc(N3CCN(c4ccc(NS(=O)(=O)c5ccc(NC(CCN6CCC(C(=O)OCCCP(=O)(O)O)CC6)CSc6ccccc6)c(S(=O)(=O)C(F)(F)F)c5)cc4)CC3)c2)c(-c2ccc(Cl)cc2)n1C(C)C
IC50: > 1000 nM
--
COMPOUND: C=C(F)C(=O)N1CCN(c2nc(OCC3CCCN3C)nc3c2CCN(c2cccc4cccc(Cl)c24)C3)CC1CC#N (stereo unspecified) + Cc1c(S(C)(=O)=O)c(-c2cc(F)cc(N3CCN(c4ccc(NS(=O)(=O)c5ccc(NC(CCN6CCC(C(=O)OCCCP(=O)(O)O)CC6)CSc6ccccc6)c(S(=O)(=O)C(F)(F)F)c5)cc4)CC3)c2)c(-c2ccc(Cl)cc2)n1C(C)C
IC50: 4170 nM
--
COMPOUND: CCN1CCN(Cc2ccc(Nc3ncc(F)c(-c4cc(F)c5nc(C)n(C(C)C)c5c4)n3)nc2)CC1 + Cc1c(S(C)(=O)=O)c(-c2cc(F)cc(N3CCN(c4ccc(NS(=O)(=O)c5ccc(NC(CCN6CCC(C(=O)OCCCP(=O)(O)O)CC6)CSc6ccccc6)c(S(=O)(=O)C(F)(F)F)c5)cc4)CC3)c2)c(-c2ccc(Cl)cc2)n1C(C)C
IC50: > 1000 nM
--
COMPOUND: NC(=O)C(=Cn1cnc(-c2cc(C(F)(F)F)cc(C(F)(F)F)c2)n1)c1cncnc1 + Cc1c(S(C)(=O)=O)c(-c2cc(F)cc(N3CCN(c4ccc(NS(=O)(=O)c5ccc(NC(CCN6CCC(C(=O)OCCCP(=O)(O)O)CC6)CSc6ccccc6)c(S(=O)(=O)C(F)(F)F)c5)cc4)CC3)c2)c(-c2ccc(Cl)cc2)n1C(C)C
IC50: > 300 nM

Look up IC50 for this compound: Cn1ncnc1[C@H]1c2n[nH]c(=O)c3cc(F)cc(c23)N[C@@H]1c1ccc(F)cc1 + CNC(C)C(=O)NC1CN(S(=O)(=O)c2cccc(S(=O)(=O)N3CCC4CCC(C(=O)NC(c5ccccc5)c5ccccc5)N4C(=O)C(NC(=O)C(C)NC)C3)c2)CCC2CCC(C(=O)NC(c3ccccc3)c3ccccc3)N2C1=O
> 100 nM

----------
# System: 439559-082-T-J2-PDC complex spheroid growth
# PROTOCOL_SUMMARY: Anticancer human tumor 439559-082-T-J2-PDC cell line growth inhibition [Asc];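 also: spheroids exposed to agents for 7 days starting day 3 after seeding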
# CONDITION_PARAMETERS: curve of first compound; second compound 1 µM
VALUE_TYPE: IC50

MOLECULE: Cc1nc(N2CCC3(CC2)COC(C)C3N)c(CO)nc1Sc1ccnc(N)c1Cl (stereo not drawn) + CNC(C)C(=O)NC1CN(S(=O)(=O)c2cccc(S(=O)(=O)N3CCC4CCC(C(=O)NC(c5ccccc5)c5ccccc5)N4C(=O)C(NC(=O)C(C)NC)C3)c2)CCC2CCC(C(=O)NC(c3ccccc3)c3ccccc3)N2C1=O
SYSTEM_UNDER_TEST: 439559-082-T-J2-PDC complex spheroid growth
VALUE_REPORTED: 2.27 µM
--
MOLECULE: O=C(c1cc(Cc2n[nH]c(=O)c3ccccc23)ccc1F)N1CCN(C(=O)C2CC2)CC1 + Cc1c(S(C)(=O)=O)c(-c2cc(F)cc(N3CCN(c4ccc(NS(=O)(=O)c5ccc(NC(CCN6CCC(C(=O)OCCCP(=O)(O)O)CC6)CSc6ccccc6)c(S(=O)(=O)C(F)(F)F)c5)cc4)CC3)c2)c(-c2ccc(Cl)cc2)n1C(C)C
SYSTEM_UNDER_TEST: 439559-082-T-J2-PDC complex spheroid growth
VALUE_REPORTED: > 10 µM

Shift focus to the following entry.
Look up IC50 for this molecule: O=C(c1cc(Cc2n[nH]c(=O)c3ccccc23)ccc1F)N1CCN(C(=O)C2CC2)CC1 + CNC(C)C(=O)NC1CN(S(=O)(=O)c2cccc(S(=O)(=O)N3CCC4CCC(C(=O)NC(c5ccccc5)c5ccccc5)N4C(=O)C(NC(=O)C(C)NC)C3)c2)CCC2CCC(C(=O)NC(c3ccccc3)c3ccccc3)N2C1=O
> 10 µM

----------
# Tested on: 439559-082-T-J2-PDC complex spheroid growth
# PROTOCOL_SUMMARY: Anticancer human tumor 439559-082-T-J2-PDC cell line growth inhibition [Asc];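 also: spheroids exposed to agents for 7 days starting day 3 after seeding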;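 as to viability, T/C: percent of DMSO vehicle control viability with 100% = vehicle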
# CONDITION_PARAMETERS: second compound 1 µM; first compound 0.0316 µM; stronger effect = lower value
VALUE_TYPE: viability, T/C (%)
Express the result in % but write the number alone.

COMPOUND: C#Cc1c(F)ccc2cc(O)cc(-c3ncc4c(N5CC6CCC(C5)N6)nc(OCC56CCCN5CC(F)C6)nc4c3F)c12 (stereo unspecified) + Cc1c(S(C)(=O)=O)c(-c2cc(F)cc(N3CCN(c4ccc(NS(=O)(=O)c5ccc(NC(CCN6CCC(C(=O)OCCCP(=O)(O)O)CC6)CSc6ccccc6)c(S(=O)(=O)C(F)(F)F)c5)cc4)CC3)c2)c(-c2ccc(Cl)cc2)n1C(C)C
VALUE_REPORTED: 72.6

What measured viability, T/C is associated with C=C(F)C(=O)N1CCN(c2nc(OCC3CCCN3C)nc3c2CCN(c2cccc4cccc(Cl)c24)C3)CC1CC#N (stereo unspecified) + CNC(C)C(=O)NC1CN(S(=O)(=O)c2cccc(S(=O)(=O)N3CCC4CCC(C(=O)NC(c5ccccc5)c5ccccc5)N4C(=O)C(NC(=O)C(C)NC)C3)c2)CCC2CCC(C(=O)NC(c3ccccc3)c3ccccc3)N2C1=O on 439559-082-T-J2-PDC complex spheroid growth?
84.5

What measured viability, T/C is associated with CNC(C)C(=O)NC1CN(S(=O)(=O)c2cccc(S(=O)(=O)N3CCC4CCC(C(=O)NC(c5ccccc5)c5ccccc5)N4C(=O)C(NC(=O)C(C)NC)C3)c2)CCC2CCC(C(=O)NC(c3ccccc3)c3ccccc3)N2C1=O (stereo unspecified) + Cc1c(S(C)(=O)=O)c(-c2cc(F)cc(N3CCN(c4ccc(NS(=O)(=O)c5ccc(NC(CCN6CCC(C(=O)OCCCP(=O)(O)O)CC6)CSc6ccccc6)c(S(=O)(=O)C(F)(F)F)c5)cc4)CC3)c2)c(-c2ccc(Cl)cc2)n1C(C)C on 439559-082-T-J2-PDC complex spheroid growth?
104

----------
# Tested on: 439559-082-T-J2-PDC complex spheroid growth
# PROTOCOL_SUMMARY: Anticancer human tumor 439559-082-T-J2-PDC cell line growth inhibition [Asc];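 also: spheroids exposed to agents for 7 days starting day 3 after seeding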;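 as to viability, T/C: percent of DMSO vehicle control viability with 100% = vehicle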
# CONDITION_PARAMETERS: second compound 0.1 µM; first compound 0.03 µM; stronger effect = lower value
VALUE_TYPE: viability, T/C (%)
Express the result in % but write the number alone.

Worked cases, answers included:
COMPOUND: CCN1C(C(=O)NC23CCC(C(=O)O)(CC2)CC3)C(c2cccc(Cl)c2F)C2(C(=O)Nc3cc(Cl)ccc32)C12CCCCC2 (stereo unspecified) + Cc1c(S(C)(=O)=O)c(-c2cc(F)cc(N3CCN(c4ccc(NS(=O)(=O)c5ccc(NC(CCN6CCC(C(=O)OCCCP(=O)(O)O)CC6)CSc6ccccc6)c(S(=O)(=O)C(F)(F)F)c5)cc4)CC3)c2)c(-c2ccc(Cl)cc2)n1C(C)C
UNIT_DESCRIPTOR: %
VALUE_REPORTED: 104

COMPOUND: CCN1C(C(=O)NC23CCC(C(=O)O)(CC2)CC3)C(c2cccc(Cl)c2F)C2(C(=O)Nc3cc(Cl)ccc32)C12CCCCC2 (stereo unspecified) + CNC(C)C(=O)NC1CN(S(=O)(=O)c2cccc(S(=O)(=O)N3CCC4CCC(C(=O)NC(c5ccccc5)c5ccccc5)N4C(=O)C(NC(=O)C(C)NC)C3)c2)CCC2CCC(C(=O)NC(c3ccccc3)c3ccccc3)N2C1=O
UNIT_DESCRIPTOR: %
VALUE_REPORTED: 101

COMPOUND: Cc1nc(N2CCC3(CC2)COC(C)C3N)c(CO)nc1Sc1ccnc(N)c1Cl (stereo unspecified) + Cc1c(S(C)(=O)=O)c(-c2cc(F)cc(N3CCN(c4ccc(NS(=O)(=O)c5ccc(NC(CCN6CCC(C(=O)OCCCP(=O)(O)O)CC6)CSc6ccccc6)c(S(=O)(=O)C(F)(F)F)c5)cc4)CC3)c2)c(-c2ccc(Cl)cc2)n1C(C)C
UNIT_DESCRIPTOR: %
VALUE_REPORTED: 115

Look up viability, T/C for this compound: Cc1nc(N2CCC3(CC2)COC(C)C3N)c(CO)nc1Sc1ccnc(N)c1Cl (stereo unspecified) + CNC(C)C(=O)NC1CN(S(=O)(=O)c2cccc(S(=O)(=O)N3CCC4CCC(C(=O)NC(c5ccccc5)c5ccccc5)N4C(=O)C(NC(=O)C(C)NC)C3)c2)CCC2CCC(C(=O)NC(c3ccccc3)c3ccccc3)N2C1=O
96.7

Look up viability, T/C for this compound: NC(=O)C(=Cn1cnc(-c2cc(C(F)(F)F)cc(C(F)(F)F)c2)n1)c1cncnc1 + Cc1c(S(C)(=O)=O)c(-c2cc(F)cc(N3CCN(c4ccc(NS(=O)(=O)c5ccc(NC(CCN6CCC(C(=O)OCCCP(=O)(O)O)CC6)CSc6ccccc6)c(S(=O)(=O)C(F)(F)F)c5)cc4)CC3)c2)c(-c2ccc(Cl)cc2)n1C(C)C
87

Look up viability, T/C for this compound: NC(=O)C(=Cn1cnc(-c2cc(C(F)(F)F)cc(C(F)(F)F)c2)n1)c1cncnc1 + CNC(C)C(=O)NC1CN(S(=O)(=O)c2cccc(S(=O)(=O)N3CCC4CCC(C(=O)NC(c5ccccc5)c5ccccc5)N4C(=O)C(NC(=O)C(C)NC)C3)c2)CCC2CCC(C(=O)NC(c3ccccc3)c3ccccc3)N2C1=O
99.3

Hey, just so you know, these numbers are from PubChem BioAssay AID1963423.
